- System: SW-620 colon
- Experimental protocol: NCI tumour cell line growth inhibition, 48 h
Measurement kind: TGI

Solved entries (count: 5):
Brc1ccc(-c2[nH]c3ccccc3c2/C=N\Nc2ccc(-c3nc4ccccc4[nH]3)cc2)cc1 : > 49.5 µM
CCCCCN(CCCCC)CCC[C@@H](C)[C@H]1CC[C@H]2[C@@H]3[C@H](OCCCN)C[C@@H]4C[C@H](OCCCN)CC[C@]4(C)[C@H]3C[C@H](OCCCN)[C@]12C : 20.2 µM
CC(C)CCN(CCC(C)C)CC(=O)Nc1ccc(S(=O)(=O)c2ccc(NC(=O)CN(CCC(C)C)CCC(C)C)cc2)cc1 : 3.74 µM
Cc1[nH]c2ncn3[nH]c(=S)nc3c2c1Cc1ccccc1 : > 100 µM
Nc1nc(Sc2ccc([N+](=O)[O-])c3nonc23)c2ncn(C3OC(CO)C(O)C3O)c2n1 (stereo not drawn) : > 35 µM

Look up TGI for the entries below, preserving their order.
1. O=C(O)c1cnc2c(ccc3[nH]cccc32)c1=O
2. COc1cc2c3c(n(CCCN=[N+]=[N-])c(=O)c2cc1OC)-c1ccccc1C3=O
3. CN(CCNC(=O)c1cn(C)c2c1ccc1ccccc12)CCNC(=O)c1cn(C)c2c1ccc1ccccc12

-- reply
1: > 100 µM; 2: > 100 µM; 3: > 100 µM
